# System: ACHN renal
# PROCEDURE_SUMMARY: NCI-60 one-dose screen, 48 h
# CONDITION_PARAMETERS: 10 µM unless noted
# Procedure: Growth inhibition of the ACHN human tumor cell line is measured as a screen for anti-cancer activity. Cells are grown in 96 well plates and exposed to the test compound for 48 hours. Compounds are tested at a single concentration, which is 10^-5 M for most compounds. The reported endpoint is percent growth (GI% or GIPRCNT), where numbers from 0 - 100% represent growth inhibition, and numbers from -100% - 0 represent cell death. For example, a value of 40 represents 60% growth inhibition. […]
This is part of a sample that, as a whole, favours compounds with a hit. Of some 83,000 tested, about 20% had one in any assay. The source made the active and inactive calls. How the source made its calls: active means growth percent below 10; inactive means the rest.
Thanks in advance; please answer with one of these: active, inactive

Query: How was `CCCCCCCCNc1cc2c3c(c1)CCCN3CCC2` classified in this test?
Result: inactive

Query: How was `CS(=O)(=O)Nc1cncc(-c2ccc3ncnc(Nc4ccc(F)c(Cl)c4)c3c2)c1` classified in this test?
Result: inactive

Query: How was `CC(=O)c1cc(-c2ccccc2N)n(-c2ccc3c(c2)OCO3)c1C` classified in this test?
Result: inactive

Query: How was `Nc1nc(C(=O)N/N=C/c2ccc(N3CCOCC3)cc2)nn1-c1ccc(S(N)(=O)=O)cc1` classified in this test?
Result: inactive

Query: How was `O=C1Nc2ccc(F)cc2/C1=N/c1nnc(Sc2ccccc2)s1` classified in this test?
Result: inactive

Query: How was `COc1cc(C(=O)c2c(N)ncn2-c2ccccc2)cc(OC)c1OC` classified in this test?
Result: inactive

Query: How was `CC/C(Cc1ccccc1)=C(\c1ccc(OCCN2CCCCCC2)cc1)c1ccc(OC(=O)NCc2ccccc2)cc1` classified in this test?
Result: inactive

Query: How was `COCC[C@H]1CCC/C=C/[C@@H]2C[C@H](O)C[C@H]2[C@H](O)/C=C/C(=O)O1` classified in this test?
Result: active

Query: How was `COc1ccc2c(c1)c(-c1ccc(-c3cn(C)c4ccc(OC)cc34)[nH]1)cn2C` classified in this test?
Result: active

Query: How was `C/C(C=O)=C\c1ccc2c(c1)OCO2` classified in this test?
Result: inactive

====

# Tested on: NCI-H322M lung
# PROCEDURE_SUMMARY: NCI-60 one-dose screen, 48 h (100 = growth as untreated, 0 = no growth, -100 = all killed)
# CONDITION_PARAMETERS: 10 µM unless noted
Compounds without any hit were thinned out: in the full panel of roughly 83,000, 20% have a hit.
# label = T if growth < 80% else F

Query: # strict comparison: is reported growth < 80%? input = `Oc1c(CN2CCCC2)cc(COCc2ccccc2)c2cccnc12`
Result: T

Query: # strict comparison: is reported growth < 80%? input = `O=C1c2cc3c(cc2-c2c1c1ccc(Cl)cc1c(=O)n2C[C@H](O)CO)OCO3`
Result: T

Query: # strict comparison: is reported growth < 80%? input = Cc1nc2sc(C(=O)Nc3ccc(Cl)cc3)c(N)c2cc1C(O)c1ccccc1 (stereo not given)
Result: T

Query: # strict comparison: is reported growth < 80%? input = `CCOC(=O)c1c2c(n3c1NCC3)-c1ccccc1C2=O`
Result: F

Query: # strict comparison: is reported growth < 80%? input = `CN1C(=O)/C(=C/c2ccc(C(=O)Nc3ncc(Cc4ccc(F)cc4)s3)cc2)SC1=S`
Result: T

Query: # strict comparison: is reported growth < 80%? input = O=C(/C=C/C12c3ccccc3C(c3ccccc31)C1C(=O)NC(=O)C12)c1ccccn1 (stereo not given)
Result: T

Query: # strict comparison: is reported growth < 80%? input = `COc1cccc2c(N=NC(=O)c3ccc(S(N)(=O)=O)cc3)c(O)[nH]c12`
Result: F

Query: # strict comparison: is reported growth < 80%? input = `Clc1nn2c(Cn3cnc4c(NCc5ccccc5)ncnc43)nnc2c2ccccc12`
Result: T

Query: # strict comparison: is reported growth < 80%? input = `O=C1Nc2ccccc2/C1=C/c1cn(C[C@@H](O)Cn2c3ccccc3c(=O)c3ccccc32)c2ccccc12`
Result: T
